# subjectOfTest: Glucagon-like peptide 1 receptor (Homo sapiens) (UniProt P43220)
# Sequence (P43220 whole entry, looked up): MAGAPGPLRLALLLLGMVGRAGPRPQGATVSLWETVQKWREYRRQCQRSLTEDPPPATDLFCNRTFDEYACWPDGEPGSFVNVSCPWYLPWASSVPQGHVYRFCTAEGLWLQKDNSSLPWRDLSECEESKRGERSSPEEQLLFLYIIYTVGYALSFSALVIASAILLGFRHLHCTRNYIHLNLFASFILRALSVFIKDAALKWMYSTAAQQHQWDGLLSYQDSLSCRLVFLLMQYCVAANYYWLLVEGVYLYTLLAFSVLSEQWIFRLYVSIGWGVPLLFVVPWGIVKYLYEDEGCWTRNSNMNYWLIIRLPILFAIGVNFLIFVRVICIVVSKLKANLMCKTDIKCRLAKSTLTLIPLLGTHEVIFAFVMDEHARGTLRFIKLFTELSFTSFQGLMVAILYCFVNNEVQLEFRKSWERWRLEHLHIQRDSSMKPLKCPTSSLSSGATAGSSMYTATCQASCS
# protocolDetails: qHTS of GLP-1 Receptor Inverse Agonists (Inhibition Mode); note: nearly all actives have a fitted effect of over 55% in size
# conditionDescription: HEK293 GLP-1R CRE-luciferase, luminescence, 24 h, GLP-1R form is constitutively active; series mostly up to 38.3 µM
In all, about 410,000 compounds went through this assay and about 6,400 (1.6%) were called active. Another 20% or so got no clear call; they are omitted. Calls come from the whole dose curve; as a rule, active = well fitted inhibition curve with a large enough effect; inconclusive = small, poorly fitted or top-dose-only effect; inactive = no such curve, though single readings can be large or run the other way. This excerpt belongs to a sample that is enriched for actives.
Entry note: the call must match one of active, inactive

Query: Could you please tell me the result logged for `Cc1nc(N2CCC(C)CC2)c2c(C)c(C(=O)Nc3cc(F)ccc3C)sc2n1` in this assay?
Response: active

Query: Could you please tell me the result logged for `COc1ccc(NC(=O)CN(C)C(=O)c2cc(C)oc2C)cc1` in this assay?
Response: inactive

Query: Could you please tell me the result logged for `Cc1ccc(OCc2n[nH]c(=S)n2-c2ccccc2)cc1` in this assay?
Response: inactive

---

# subjectOfTest: Glucagon-like peptide 1 receptor (Homo sapiens) (UniProt P43220)
# protocolDetails: qHTS of GLP-1 Receptor Inverse Agonists (Inhibition Mode); note: nearly all actives have a fitted effect of over 55% in size
# conditionDescription: HEK293 GLP-1R CRE-luciferase, luminescence, 24 h, GLP-1R form is constitutively active; series mostly up to 38.3 µM
The whole screen tested about 410,000 compounds, of which about 6,400 (1.6%) were called active. About 20% were inconclusive and are not listed. Calls come from the whole dose curve; as a rule, active = well fitted inhibition curve with a large enough effect; inconclusive = small, poorly fitted or top-dose-only effect; inactive = no such curve, though single readings can be large or run the other way. The list comes from a sample in which actives are over-represented; it also holds close analogues and randomly drawn compounds.
Entry note: the call must match one of yes (active), no (inactive)

Query: Could you please tell me the result logged for CC1CCCN(CC(O)COCc2ccccc2)C1 (stereo not given) in this assay?
Response: no

Query: Could you please tell me the result logged for CC(=O)Nc1ccc(NC(=O)C2CCCN2S(=O)(=O)c2cccc(C(F)(F)F)c2)cc1 (stereo not given) in this assay?
Response: no

Query: Could you please tell me the result logged for `CCOc1ccccc1/C=N/Nc1nc2ccccc2o1` in this assay?
Response: no

Query: Could you please tell me the result logged for `CN(C)CCCn1c(SCCN2C(=O)c3ccccc3C2=O)nc2ccccc2c1=O` in this assay?
Response: no

Query: Could you please tell me the result logged for `Cc1ccc([C@H]2C[C@H](O)[C@@H](n3cc(COC(=O)c4ccccc4)nn3)CN2CC2CCCCC2)cc1` in this assay?
Response: no

Query: Could you please tell me the result logged for `Nc1ncnc2c1ncn2[C@@H]1O[C@H](C(=O)N2CCSC2)[C@@H](O)[C@H]1O` in this assay?
Response: no

Query: Could you please tell me the result logged for `Cc1nc2ccccc2c(=O)n1NC(=O)c1ccccc1` in this assay?
Response: no

Query: Could you please tell me the result logged for O=S(=O)(c1cccc(C(F)(F)F)c1)N1c2ccccc2-n2cccc2C1c1cccnc1 (stereo not given) in this assay?
Response: yes

Query: Could you please tell me the result logged for CCNC(=O)C1(C)CCN(Cc2ccc(C(=O)OCC)o2)C1 (stereo not given) in this assay?
Response: no

Query: Could you please tell me the result logged for CCc1cccc(CC)c1N1C(=O)CC(Sc2ccccc2N)C1=O (stereo not given) in this assay?
Response: no

---

# subjectOfTest: Glucagon-like peptide 1 receptor (Homo sapiens)
# protocolDetails: qHTS of GLP-1 Receptor Inverse Agonists (Inhibition Mode); note: nearly all actives have a fitted effect of over 55% in size
# conditionDescription: HEK293 GLP-1R CRE-luciferase, luminescence, 24 h, GLP-1R form is constitutively active; series mostly up to 38.3 µM
The whole screen tested about 410,000 compounds, of which about 6,400 (1.6%) were called active. Another 20% or so got no clear call; they are omitted. The call rests on the fitted dose curve; in most records, active means well fitted inhibition curve with a large enough effect; inconclusive means small, poorly fitted or top-dose-only effect; inactive means no such curve, though single readings can be large or run the other way. What follows is part of a selection rich in actives, with near analogues and random picks from the rest.
Entry note: the call must match one of active, inactive

Query: Could you please tell me the result logged for Cc1[nH]c2ccccc2c1C(=O)C(C)Sc1nnc(C2CC2)o1 (centres undefined) in this assay?
Response: inactive

Query: Could you please tell me the result logged for `COc1cc2[nH]c(=O)n(Cc3ccc(C(=O)NC4CCN(Cc5ccccc5)CC4)cc3)c(=O)c2cc1OC` in this assay?
Response: inactive

Query: Could you please tell me the result logged for `CCOC(=O)C1=CC[C@@H](c2ccncc2)N(S(=O)(=O)c2ccc(C)cc2)C1` in this assay?
Response: inactive

Query: Could you please tell me the result logged for `Cc1[nH]c2ccccc2c1C(=O)c1cc([C@H](NC(=O)OC(C)(C)C)C(C)C)sc1N` in this assay?
Response: active

The values you see were collected from PubChem BioAssay AID624417.
